# System: HT29 colon
# method.description: NCI-60 one-dose screen, 48 h
# condition.details: 10 µM unless noted
This is part of a sample that, as a whole, favours compounds with a hit. Of some 83,000 tested, about 20% had one in any assay. The source made the active and inactive calls. How the source made its calls: active means growth percent below 10; inactive means the rest.
Pick one and only one: label 1 for active, label 0 for inactive

Lookup: Name the outcome recorded for N#Cc1ncc(-c2ccc(C(F)(F)F)cc2)c(NC2CCCCCC2)n1 in the assay.
Found: label 0

Lookup: Name the outcome recorded for NS(=O)(=O)c1ccc(-n2ncc3c(NC4CCCCC4)ncnc32)cc1 in the assay.
Found: label 0

Lookup: Name the outcome recorded for CCOC(=O)/C=C1/SC(=Nc2ccc(C#N)cc2)N(Cc2ccco2)C1=O in the assay.
Found: label 0

Lookup: Name the outcome recorded for Cc1ccc(-c2c3c(N)c4c(nc3nc3c2c(C)nn3-c2ccccc2)CCC4)cc1 in the assay.
Found: label 1

Lookup: Name the outcome recorded for COc1cc(-c2n[nH]nc2-c2ccccn2)cc(OC)c1OC in the assay.
Found: label 0

Lookup: Name the outcome recorded for COc1ccc(CNC(=O)c2c(C)n([O-])c3ccccc3[n+]2=O)cc1 in the assay.
Found: label 0

Lookup: Name the outcome recorded for Cc1ccc(/C=C/C(=O)c2ccc(F)cc2)s1 in the assay.
Found: label 0

Lookup: Name the outcome recorded for O=C(CNC(=O)c1cccc2ccccc12)Nc1ccccc1Cc1ccccc1 in the assay.
Found: label 1

Lookup: Name the outcome recorded for C=C1CCC2C(C)(COC(=O)CC)C(OC(=O)CC)CCC2(C)C1C/C=C1/C(=O)OCC1OC(=O)CC (stereo not given) in the assay.
Found: label 1

Lookup: Name the outcome recorded for N#Cc1ccccc1C#Cc1ccccc1C#Cc1ccc(OCCCCCCOc2ccc(C#Cc3ccccc3C#Cc3ccccc3C#N)cc2)cc1 in the assay.
Found: label 0

* * *

# Tested on: SF-295 CNS
# method.description: NCI-60 one-dose screen, 48 h (100 = growth as untreated, 0 = no growth, -100 = all killed)
# condition.details: 10 µM unless noted
# Method: Cells are grown in 96 well plates and exposed to the test compound for 48 hours. Compounds are tested at a single concentration, which is 10^-5 M for most compounds. The reported endpoint is percent growth (GI% or GIPRCNT), where numbers from 0 - 100% represent growth inhibition, and numbers from -100% - 0 represent cell death. For example, a value of 40 represents 60% growth inhibition. A value of 0 means no net growth occurred over the course of the experiment. […]
The panel holds about 83,000 compounds, 20% with a hit somewhere; the sample as a whole holds those more often.
assay.readout: growth (%)
Write down the numeric answer in % and omit the unit.

Lookup: Recorded growth for CCc1nn2c(-c3ccc(Cl)cc3C)c(-c3cc(OC)c(OC)c(OC)c3)nc2s1 , please?
Found: 95.3

Lookup: Recorded growth for O=C(Nc1ccccc1)P(=O)(O)c1ccccc1 , please?
Found: 122

Lookup: Recorded growth for CC1C(C)N(C(=O)CCl)c2ccccc2N1C(=O)CCl (centres undefined) , please?
Found: -66.7

Lookup: Recorded growth for COc1cnc2c(c1)C(=O)c1c-2n(CCCn2ccnc2)c(=O)c2cc(F)ccc12 , please?
Found: -5.57

Lookup: Recorded growth for COc1cccc2c1C(=O)c1c(O)c3c(c(O)c1C2=O)C[C@@](O)(C(C)=O)C[C@@H]3O[C@H]1C[C@H](N)[C@H](O)[C@H](C)O1 , please?
Found: -30.8

Lookup: Recorded growth for COc1ccc(NC(=O)[C@@H]2C[C@H]2c2ccccc2)c(C(N)=O)c1 , please?
Found: 100

Lookup: Recorded growth for Nc1nc(Nc2ccccc2SSc2ccccc2Nc2nc(N)nc(-c3cccc(Cl)c3)n2)nc(-c2cccc(Cl)c2)n1 , please?
Found: 79.2

Lookup: Recorded growth for N#CC1c2ccccc2C=CN1C(=O)N(c1ccccc1)c1ccccc1 (centres undefined) , please?
Found: 67.7

Lookup: Recorded growth for CCOC(=O)CNC(=O)C1(NC(=O)CNC(=O)OCc2ccccc2)CCCC1 , please?
Found: 126
